target: FAAH (Homo sapiens); experiment: Assay Method 1: FAAH assay, 3H-anandamide hydrolysis in cell homogenate; conditions: T84 or transfected SK-N-MC cell homogenate, 80 nM 3H-AEA, 1 h rt, > = solubility limit or highest concentration tested
Sequence (O00519 whole entry): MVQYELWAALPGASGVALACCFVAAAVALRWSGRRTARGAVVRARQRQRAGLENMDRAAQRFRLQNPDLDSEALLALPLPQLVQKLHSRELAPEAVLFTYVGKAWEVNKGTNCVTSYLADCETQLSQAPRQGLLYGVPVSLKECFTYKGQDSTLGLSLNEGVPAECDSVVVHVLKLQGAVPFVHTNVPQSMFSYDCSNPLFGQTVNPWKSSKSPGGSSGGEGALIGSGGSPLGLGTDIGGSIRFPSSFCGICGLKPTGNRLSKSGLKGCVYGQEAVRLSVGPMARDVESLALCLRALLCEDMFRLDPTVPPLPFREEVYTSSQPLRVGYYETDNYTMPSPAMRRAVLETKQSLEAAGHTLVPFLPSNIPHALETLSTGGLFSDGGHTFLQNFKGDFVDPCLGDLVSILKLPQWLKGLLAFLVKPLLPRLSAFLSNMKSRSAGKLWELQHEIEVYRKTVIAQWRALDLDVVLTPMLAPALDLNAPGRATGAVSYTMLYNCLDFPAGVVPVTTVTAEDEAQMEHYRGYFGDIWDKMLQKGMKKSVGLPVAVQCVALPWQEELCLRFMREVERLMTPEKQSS
readoutKind: IC50 (nM)

>>> obsvalue("O=C(c1ncco1)C1CCN(C(=O)c2ccc(Cl)cc2)CC1 [Example 11]")
2150

[A] O=C(c1ncco1)C1CCN(Cc2ccc(F)c(F)c2)CC1 [Example 38]
[B] CC(c1cccc(C(F)(F)F)c1)N1CCC(C(=O)c2ncco2)CC1 (centres unmarked) [Example 91]
[C] O=C(c1ncco1)C1CCN(Cc2ccc3cc(Cl)ccc3n2)CC1 [Example 77]
Ordering: ascending IC50. Please express your ranking as an ordered list of the labels.
C, A, B
(C: 7 nM, A: 30 nM, B: 782 nM)

====

molecular target: Rat FAAH (Rattus norvegicus); assay: Assay Method 2: FAAH assay, 3H-anandamide hydrolysis in cell homogenate; conditions: transfected SK-N-MC cell homogenate, 80 nM 3H-AEA, 1 h rt, > = solubility limit or highest concentration tested
readoutKind: IC50 (nM)

Here are 5 molecules together with their reported answers.
>>> obsvalue("CC(C)COc1cccc(CN2CCC(C(=O)c3ncco3)CC2)c1 [Example 16]")
975
>>> obsvalue("O=C(c1ncco1)C1CCN(Cc2cnc3ccccc3n2)CC1 [Example 78]")
90
>>> obsvalue("O=C(c1ncco1)C1CCN(Cc2cccc(OC(F)(F)F)c2)CC1 [Example 37]")
40
>>> obsvalue("CS(=O)(=O)c1cc(Br)ccc1CN1CCC(C(=O)c2ncco2)CC1 [Example 25]")
23
>>> obsvalue("COc1cccc(CN2CCC(C(=O)c3ncco3)CC2)c1 [Example 62]")
1300

[A] O=C(c1ncco1)C1CCN(Cc2ccc3cccnc3n2)CC1 [Example 41]
[B] O=C(c1ncco1)C1CCN(Cc2cccc(Cl)c2)CC1 [Example 34]
[C] O=C(c1ncco1)C1CCN(Cc2ccc(Br)c([N+](=O)[O-])c2)CC1 [Example 26]
[D] Cc1cccc(CN2CCC(C(=O)c3ncco3)CC2)n1 [Example 83]
# desc sort on IC50 across 4 molecules Please express your ranking as an ordered list of the labels.
D, A, B, C
(D: 3000 nM, A: 1750 nM, B: 300 nM, C: 9 nM)

====

Target: Rat FAAH (Rattus norvegicus, UniProt P97612)
Sequence (P97612 1-579): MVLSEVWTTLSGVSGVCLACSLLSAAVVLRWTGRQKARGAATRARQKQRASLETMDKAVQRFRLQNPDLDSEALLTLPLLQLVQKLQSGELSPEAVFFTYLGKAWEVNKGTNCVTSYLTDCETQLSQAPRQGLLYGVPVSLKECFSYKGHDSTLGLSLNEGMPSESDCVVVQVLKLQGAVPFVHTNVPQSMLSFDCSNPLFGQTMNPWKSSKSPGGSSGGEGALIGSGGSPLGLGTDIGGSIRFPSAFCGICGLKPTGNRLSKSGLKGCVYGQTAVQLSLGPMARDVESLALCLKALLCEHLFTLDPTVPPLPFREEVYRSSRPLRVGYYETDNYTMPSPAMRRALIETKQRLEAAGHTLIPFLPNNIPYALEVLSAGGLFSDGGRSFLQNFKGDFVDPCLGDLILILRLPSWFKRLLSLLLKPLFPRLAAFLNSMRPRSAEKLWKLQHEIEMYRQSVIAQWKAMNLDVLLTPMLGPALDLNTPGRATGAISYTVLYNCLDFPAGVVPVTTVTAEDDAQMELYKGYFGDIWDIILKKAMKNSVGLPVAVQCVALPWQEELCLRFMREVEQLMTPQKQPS
Assay: Assay Method 2: FAAH assay, 3H-anandamide hydrolysis in cell homogenate
Conditions: transfected SK-N-MC cell homogenate, 80 nM 3H-AEA, 1 h rt, > = solubility limit or highest concentration tested
readoutKind: IC50 (nM)

>>> obsvalue("O=C(c1ncco1)C1CCN(Cc2nc3ccccc3cc2Cl)CC1 [Example 80]")
70
>>> obsvalue("O=C(c1ncco1)C1CCN(Cc2cc3ccccc3s2)CC1 [Example 54]")
9
>>> obsvalue("CC(c1cccc(C(F)(F)F)c1)N1CCC(C(=O)c2ncco2)CC1 (centres unmarked) [Example 91]")
370
>>> obsvalue("O=C(c1ncco1)C1CCN(Cc2cccc(OC3CCCCC3)c2)CC1 [Example 22]")
790
>>> obsvalue("Cn1c(CN2CCC(C(=O)c3ncco3)CC2)cc2ccccc21 [Example 50]")
8
>>> obsvalue("O=C(c1ncco1)C1CCN(Cc2ccc3cccc(O)c3n2)CC1 [Example 79]")
40

[I] COc1ccc(CN2CCC(C(=O)c3ncco3)CC2)cn1 [Example 81]
[II] COc1ccc2cc(CN3CCC(C(=O)c4ncco4)CC3)c(Cl)nc2c1 [Example 68]
Compare I and II by numeric IC50 and name the larger one. Identify your selection by its label.
I

[a] Cn1c(CN2CCC(C(=O)c3ncco3)CC2)nc2ccccc21 [Example 49]
[b] Cc1cccc2cc(CN3CCC(C(=O)c4ncco4)CC3)c(Cl)nc12 [Example 73]
[c] COc1ccc(CN2CCC(C(=O)c3ncco3)CC2)cc1OC [Example 43]
[d] Cn1ccc2cc(CN3CCC(C(=O)c4ncco4)CC3)ccc21 [Example 39]
# desc sort on IC50 across 4 compounds Please express your ranking as an ordered list of the labels.
c, d, a, b

[I] O=C(c1ncco1)C1CCN(Cc2cccc(C(F)(F)F)c2)CC1 [Example 18]
[II] O=C(c1ncco1)C1CCN(Cc2ccc3cccc(Cl)c3n2)CC1 [Example 75]
Hello, I am sorting some records. Could you say if I or II has the smaller IC50 value? Identify your selection by its label.
II
(II: 4 nM, I: 96 nM)

[a] O=C(c1ncco1)C1CCN(Cc2ccc(Br)c(Br)c2)CC1 [Example 87]
[b] O=C(c1ncco1)C1CCN(C(=O)c2ccc(Cl)cc2)CC1 [Example 11]
Hello, I am sorting some records. Could you say if a or b has the smaller IC50 value? Identify your selection by its label.
a

====

Biological target: Rat FAAH (Rattus norvegicus, UniProt P97612)
Construct: expressed in transfected cells
Sequence (P97612 1-579): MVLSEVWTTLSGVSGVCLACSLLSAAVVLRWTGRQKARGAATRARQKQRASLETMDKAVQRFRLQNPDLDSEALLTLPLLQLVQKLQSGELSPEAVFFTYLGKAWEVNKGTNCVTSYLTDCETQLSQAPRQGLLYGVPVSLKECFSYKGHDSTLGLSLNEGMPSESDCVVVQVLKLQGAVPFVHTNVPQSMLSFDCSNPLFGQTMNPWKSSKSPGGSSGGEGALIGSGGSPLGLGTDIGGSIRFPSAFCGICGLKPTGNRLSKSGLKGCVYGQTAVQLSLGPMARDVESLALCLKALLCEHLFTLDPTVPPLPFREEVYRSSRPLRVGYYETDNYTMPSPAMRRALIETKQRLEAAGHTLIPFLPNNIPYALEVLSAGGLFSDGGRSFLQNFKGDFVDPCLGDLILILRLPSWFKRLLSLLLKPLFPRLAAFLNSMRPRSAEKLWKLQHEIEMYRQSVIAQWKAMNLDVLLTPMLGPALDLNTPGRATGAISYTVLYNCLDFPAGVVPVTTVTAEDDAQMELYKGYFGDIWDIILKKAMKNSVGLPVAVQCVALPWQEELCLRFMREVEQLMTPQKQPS
Test: Assay Method 2: FAAH assay, 3H-anandamide hydrolysis in cell homogenate
Format: biochemical
Details: transfected SK-N-MC cell homogenate, 80 nM 3H-AEA, 1 h rt, > = solubility limit or highest concentration tested
Experimental: A. Transfection of Cells with Rat FAAH A 10-cm tissue culture dish with a confluent monolayer of SK-N-MC cells was split 2 days (d) prior to transfection. Using sterile technique, the media was removed and the cells were detached from the dish by the addition of trypsin. One fifth of the cells were then placed onto a new 10-cm dish. […] After 10 d, dishes were analyzed for surviving colonies of cells. […]
pIC50: −log10 of the molar value.
readoutKind: pIC50

>>> obsvalue("O=C(c1ncco1)C1CCN(Cc2ccc(Br)cc2F)CC1")
7.12

[a] O=C(c1ncco1)C1CCN(Cc2cccc(Oc3ccccc3)c2)CC1
[b] O=C(c1ncco1)C1CCN(Cc2ccccc2Br)CC1
Hello, I am sorting some records. Could you say if a or b has the smaller pIC50 value? Identify your selection by its label.
b

====

Biological target: Rat FAAH (Rattus norvegicus, UniProt P97612)
Sequence (P97612 1-579): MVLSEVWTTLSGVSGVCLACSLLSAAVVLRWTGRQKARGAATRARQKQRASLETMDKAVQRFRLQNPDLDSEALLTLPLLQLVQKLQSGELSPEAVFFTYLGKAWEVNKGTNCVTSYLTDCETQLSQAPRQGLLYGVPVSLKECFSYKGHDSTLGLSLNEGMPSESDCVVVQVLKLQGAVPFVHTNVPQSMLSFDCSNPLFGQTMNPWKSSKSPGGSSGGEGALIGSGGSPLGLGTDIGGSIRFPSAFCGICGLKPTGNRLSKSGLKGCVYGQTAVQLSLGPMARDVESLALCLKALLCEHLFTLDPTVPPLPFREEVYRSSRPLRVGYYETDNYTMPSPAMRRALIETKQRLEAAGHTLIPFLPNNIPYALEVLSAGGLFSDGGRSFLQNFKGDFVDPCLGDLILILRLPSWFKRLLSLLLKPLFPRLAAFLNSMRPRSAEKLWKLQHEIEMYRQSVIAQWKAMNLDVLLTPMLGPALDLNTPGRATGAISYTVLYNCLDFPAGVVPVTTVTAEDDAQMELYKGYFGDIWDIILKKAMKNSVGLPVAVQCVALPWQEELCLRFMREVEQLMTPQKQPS
Assay: Assay Method 2: FAAH assay, 3H-anandamide hydrolysis in cell homogenate
Conditions: transfected SK-N-MC cell homogenate, 80 nM 3H-AEA, 1 h rt, > = solubility limit or highest concentration tested
pIC50: −log10 of the molar value.
readoutKind: pIC50

>>> obsvalue("O=C(c1ncco1)C1CCN(Cc2ccc3cc[nH]c3c2)CC1")
5.80
>>> obsvalue("O=C(c1ncco1)C1CCN(Cc2ccc(Cl)c(Cl)c2)CC1")
8.30
>>> obsvalue("O=C(c1ncco1)C1CCN(Cc2ccccc2)CC1")
5.15

[I] O=C(c1ncco1)C1CCN(C(=O)c2ccc3ccccc3c2)CC1
[II] O=C(c1ncco1)C1CCN(Cc2cccc(F)c2)CC1
[III] O=C(c1ncco1)C1CCN(Cc2cccc(Br)c2)CC1
[IV] CN(C)c1nc2ccccc2cc1CN1CCC(C(=O)c2ncco2)CC1
# desc sort on pIC50 across 4 molecules Please express your ranking as an ordered list of the labels.
IV, III, I, II
(IV: 7.42, III: 6.70, I: 6.46, II: 5.85)
